From: the supplement of paper PMC10981050

- Tested on: OCI-AML2
- protocol-summary: cell viability relative to vehicle control; higher = less cytotoxic;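 also: after 48 h exposure read by CellTiter-Glo luminescence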
- condition-description: 10 µM; SRSF2 genotype: P95H/wt
Recorded measurements of cell viability, one per entry

>  <smiles-structure>
COC(=O)N[C@H](C(=O)N1CC2(CC2)C[C@H]1c1nc(-c2ccc3c(c2)C(F)(F)c2cc(-c4ccc5[nH]c([C@@H]6[C@H]7CC[C@H](C7)N6C(=O)[C@@H](NC(=O)OC)C(C)C)nc5c4)ccc2-3)c[nH]1)C(C)C

>  <units-symbol>
%

>  <cell viability>
87.9

$$$$
>  <smiles-structure>
OC[C@H]1O[C@@H](c2ccc(F)c(Cc3cc4ccccc4s3)c2)[C@H](O)[C@@H](O)[C@@H]1O

>  <units-symbol>
%

>  <cell viability>
99.1

$$$$
>  <smiles-structure>
O=c1c(-n2ccnn2)c[nH]n1-c1cc(N2CCOCC2)ncn1

>  <units-symbol>
%

>  <cell viability>
85.2

$$$$

----------
Recorded measurements of cell viability, one per entry
- Tested on: MOLM14
- protocol-summary: cell viability relative to vehicle control; higher = less cytotoxic
- condition-description: 10 µM; SRSF2 genotype: SRSF2 P95H/wt
Counter-ions that a name gives are not always drawn.

>  <compound>
OCC(O)C(O)C(O)C(O)CO (centres undefined) [Allitol]

>  <target-under-test>
MOLM14

>  <cell viability [%]>
108

$$$$
>  <compound>
C=C1CCOC1=O

>  <target-under-test>
MOLM14

>  <cell viability [%]>
88.6

$$$$
>  <compound>
Cc1ccc(Sc2ccccc2N2CCNCC2)c(C)c1

>  <target-under-test>
MOLM14

>  <cell viability [%]>
3.31

$$$$
>  <compound>
Nc1ccc(Cl)cc1C(=O)C(F)(F)F [4-Chloro-2-(trifluoroacetyl)aniline hydrochl]

>  <target-under-test>
MOLM14

>  <cell viability [%]>
105

$$$$
>  <compound>
O=C1c2c(O)cc(O)cc2OC(c2ccc(O)c(O)c2)C1O (centres undefined) [Taxifolin (Dihydroquercetin)]

>  <target-under-test>
MOLM14

>  <cell viability [%]>
100

$$$$
>  <compound>
Cc1c(-c2ccc(C(N)=O)c3[nH]c4cc(C(C)(C)O)ccc4c23)cccc1-n1cnc2ccccc2c1=O

>  <target-under-test>
MOLM14

>  <cell viability [%]>
48.4

$$$$
>  <compound>
Nc1ccc(O)cc1

>  <target-under-test>
MOLM14

>  <cell viability [%]>
12.1

$$$$
>  <compound>
Cc1cc(C)nc(O)n1.O=C(Nc1ccc([N+](=O)[O-])cc1)Nc1ccc([N+](=O)[O-])cc1

>  <target-under-test>
MOLM14

>  <cell viability [%]>
103

$$$$
>  <compound>
CCCOc1ccc2c(c1)CC[C@@H]1[C@@H]2CC[C@]2(C)[C@@H](OC)CC[C@@H]12

>  <target-under-test>
MOLM14

>  <cell viability [%]>
83.1

$$$$
>  <compound>
COCCNC(=O)Nc1ccc2nc(-c3cccs3)c(-c3cccs3)nc2c1

>  <target-under-test>
MOLM14

>  <cell viability [%]>
89.1

$$$$
>  <compound>
Cc1ccccc1N1C(=O)c2cc(S(N)(=O)=O)c(Cl)cc2NC1C (centres undefined) [Metolazone (Zaroxolyn)]

>  <target-under-test>
MOLM14

>  <cell viability [%]>
99.5

$$$$
>  <compound>
C=C[C@@H]1CNC(=S)O1 [Epigoitrin]

>  <target-under-test>
MOLM14

>  <cell viability [%]>
101

$$$$
>  <compound>
Cc1cc2c3c([n+](C)c4ccc(F)cc4c3c1)-c1cc(F)ccc1N2C [RHPS 4 methosulfate]

>  <target-under-test>
MOLM14

>  <cell viability [%]>
5.12

$$$$
>  <compound>
Cc1cc(N2CCN([C@@H]3CN[C@H](C(=O)N4CCSC4)C3)CC2)n(-c2ccccc2)n1 [Teneligliptin hydrobromide]

>  <target-under-test>
MOLM14

>  <cell viability [%]>
84.8

$$$$
>  <compound>
O=c1ccoc2cc(O)ccc12 [7-Hydroxy-4-chromone]

>  <target-under-test>
MOLM14

>  <cell viability [%]>
98.9

$$$$
>  <compound>
CC(=O)N[C@@H](CC(C)C)C(=O)N[C@@H](CC(C)C)C(=O)N[C@H](C=O)CCCNC(=N)N [Leupeptin Hemisulfate]

>  <target-under-test>
MOLM14

>  <cell viability [%]>
85.8

$$$$
>  <compound>
CCCCCCCCCCCCCCCCCC(=O)O

>  <target-under-test>
MOLM14

>  <cell viability [%]>
105

$$$$
>  <compound>
O=C1NC(=O)/C(=C/c2ccc3nccc(-c4ccncc4)c3c2)S1

>  <target-under-test>
MOLM14

>  <cell viability [%]>
40.1

$$$$
>  <compound>
O=C1NC(=O)/C(=C/c2ccc3c(c2)OC(F)(F)O3)S1

>  <target-under-test>
MOLM14

>  <cell viability [%]>
96.9

$$$$

----------
Recorded measurements of cell viability, one per entry
- System: MARIMO
- protocol-summary: cell viability relative to vehicle control; higher = less cytotoxic
- condition-description: 10 µM; SRSF2 genotype: SRSF2 wt/wt
Counter-ions that a name gives are not always drawn.

>  <compound>
C=C1C[C@@]23CC[C@H]4[C@@](C)(CCC[C@@]4(C)C(=O)O)[C@@H]2CC[C@@H]1C3

>  <cell viability / %>
101

$$$$
>  <compound>
CN(C)c1cccc(-c2c3c(=O)n(-c4ccccc4Cl)[nH]c3cc(=O)n2C)c1

>  <cell viability / %>
126

$$$$
>  <compound>
CCCCCCCCCCC[C@@H](C[C@@H]1OC(=O)[C@H]1CCCCCC)OC(=O)[C@H](CC(C)C)NC=O

>  <cell viability / %>
64.9

$$$$
>  <compound>
Cc1cc(C)cc(C(=O)NOCCCCCC(=O)NO)c1

>  <cell viability / %>
10.6

$$$$
>  <compound>
CC(=CCNc1ncnc2c1ncn2C1OC(CO)C(O)C1O)CO (stereo not drawn) [trans-Zeatin-riboside]

>  <cell viability / %>
110

$$$$
>  <compound>
Cc1ccc(Nc2c(F)cccc2Cl)c(CC(=O)O)c1

>  <cell viability / %>
96

$$$$
>  <compound>
CCCCCCCCOC(=O)c1cc(O)c(O)c(O)c1 [Octyl gallate]

>  <cell viability / %>
51

$$$$
>  <compound>
O=C(O)[C@@]1(CCCCCCOc2ccc(Cl)cc2)CO1 [Etomoxir (Na salt)]

>  <cell viability / %>
110

$$$$
>  <compound>
COc1cc(-c2ncn(/C=C\C(=O)OC(C)C)n2)cc(C(F)(F)F)c1

>  <cell viability / %>
20.6

$$$$

----------
Recorded measurements of cell viability, one per entry
- Test system: MARIMO
- protocol-summary: cell viability relative to vehicle control; higher = less cytotoxic
- condition-description: 10 µM; SRSF2 genotype: SRSF2 wt/wt

>  <compound>
CCOc1ccc(Cc2cc([C@]34OC[C@](CO)(O3)[C@@H](O)[C@H](O)[C@H]4O)ccc2Cl)cc1

>  <cell viability (%)>
101

$$$$
>  <compound>
CCOc1nc2cccc(C(=O)OC(C)OC(=O)OC3CCCCC3)c2n1Cc1ccc(-c2ccccc2-c2nn[nH]n2)cc1 (configuration not stated)

>  <cell viability (%)>
106

$$$$
>  <compound>
O=C(c1cncc(Br)c1)N1CCC(N2CCCC2)CC1

>  <cell viability (%)>
100

$$$$
>  <compound>
CCCCC1OC(=O)c2ccccc21 (configuration not stated) [3-n-Butylphathlide]

>  <cell viability (%)>
104

$$$$
>  <compound>
COc1cc2c(cc1O)C[C@H]1c3cc(O)c(OC)cc3CC[N+]1(C)C2 (some centres not stated) [Phellodendrine chloride]

>  <cell viability (%)>
95.6

$$$$
>  <compound>
CCCC(=O)O[C@]1(C(=O)COC(C)=O)CC[C@H]2[C@@H]3C[C@H](F)C4=CC(=O)C=C[C@]4(C)[C@@]3(F)[C@@H](O)C[C@@]21C [Difluprednate]

>  <cell viability (%)>
100

$$$$
>  <compound>
CCC(=O)NS(=O)(=O)c1ccc(-c2c(-c3ccccc3)noc2C)cc1

>  <cell viability (%)>
108

$$$$
>  <compound>
CNC[C@@H](O)c1ccc(O)c(O)c1 [L-Adrenaline (Epinephrine)]

>  <cell viability (%)>
101

$$$$
>  <compound>
O=C(c1ccc(F)c(F)c1Nc1ccc(I)cc1F)N1CC(O)([C@@H]2CCCCN2)C1

>  <cell viability (%)>
28.6

$$$$
>  <compound>
CN1CCN(c2ccc(Nc3cc(-c4cccc(-n5ccc6cc(C7CC7)cc(F)c6c5=O)c4CO)cn(C)c3=O)nc2)CC1

>  <cell viability (%)>
0.49

$$$$
>  <compound>
COc1cc(C(=O)NS(=O)(=O)c2ccccc2C)ccc1Cc1cn(C)c2ccc(NC(=O)OC3CCCC3)cc12 [Zafirlukast (Accolate)]

>  <cell viability (%)>
110

$$$$
>  <compound>
COC(=O)C1=CO[C@@H](O[C@@H]2O[C@H](CO)[C@@H](O)[C@H](O)[C@H]2O)[C@@H]2[C@H](C)O[C@@H](O)C[C@H]12 [Morroniside]

>  <cell viability (%)>
97.1

$$$$
>  <compound>
CC(C)(Cc1ccc2ccccc2c1)NC[C@@H](O)COc1cccc(Cl)c1C#N

>  <cell viability (%)>
25.5

$$$$
>  <compound>
Cn1c(Nc2ccc(C(F)(F)F)cc2)nc2cc(Oc3ccnc(-c4ncc(C(F)(F)F)[nH]4)c3)ccc21

>  <cell viability (%)>
58.6

$$$$
>  <compound>
CCCc1cc(C)[nH]c(=O)c1CNC(=O)c1cc(-c2ccc(N3CCN(C)CC3)nc2)nc2c1cnn2C(C)C

>  <cell viability (%)>
47.7

$$$$
>  <compound>
COc1ccc(-c2cc(=O)c3c(OC)c(OC)c(OC)c(OC)c3o2)cc1OC

>  <cell viability (%)>
82.1

$$$$
>  <compound>
O=C(C=Cc1cccnc1)c1ccncc1

>  <cell viability (%)>
62.8

$$$$
>  <compound>
CNC(=O)c1ccccc1Oc1nc(Nc2cc(OC)c(OC)c(OC)c2)ncc1Br

>  <cell viability (%)>
55.3

$$$$
>  <compound>
CC[C@H]1OC(=O)[C@@](C)(F)C(=O)[C@H](C)[C@@H](O[C@@H]2O[C@H](C)C[C@H](N(C)C)[C@H]2O)[C@](C)(OC)C[C@@H](C)C(=O)[C@H](C)[C@H]2N(CCCCn3cc(-c4cccc(N)c4)nn3)C(=O)O[C@]12C

>  <cell viability (%)>
101

$$$$
>  <compound>
CCOC(=O)C1=C(C)NC(C)=C(C(=O)OC)C1c1cccc([N+](=O)[O-])c1 (configuration not stated)

>  <cell viability (%)>
99.9

$$$$
>  <compound>
CC(=O)OCC(=O)[C@@]12OC(C)(C)O[C@@H]1C[C@H]1[C@@H]3C[C@H](F)C4=CC(=O)C=C[C@]4(C)[C@@]3(F)[C@@H](O)C[C@@]12C [Fluocinonide (Vanos)]

>  <cell viability (%)>
106

$$$$
>  <compound>
O=C(O)c1ccc(N2C(=O)C(=Cc3ccc(-c4ccc([N+](=O)[O-])cc4)o3)C=C2c2ccccc2)cc1

>  <cell viability (%)>
108

$$$$
>  <compound>
COC[C@H]1C[C@@H](c2nc(-c3ccc4c(c3)COc3cc5c(ccc6nc([C@@H]7CC[C@H](C)N7C(=O)[C@@H](NC(=O)OC)C(C)C)[nH]c65)cc3-4)c[nH]2)N(C(=O)[C@H](NC(=O)OC)c2ccccc2)C1

>  <cell viability (%)>
91.6

$$$$
>  <compound>
C[C@H](CC[C@@]1(O)O[C@H]2C[C@H]3[C@@H]4CC=C5C[C@@H](O[C@@H]6O[C@H](CO)[C@@H](O[C@@H]7O[C@@H](C)[C@H](O)[C@@H](O)[C@H]7O)[C@H](O)[C@H]6O[C@@H]6O[C@@H](C)[C@H](O)[C@@H](O)[C@H]6O)CC[C@]5(C)[C@H]4CC[C@]3(C)[C@H]2[C@@H]1C)CO[C@@H]1O[C@H](CO)[C@@H](O)[C@H](O)[C@H]1O

>  <cell viability (%)>
0.77

$$$$
>  <compound>
C=CC(C)(O)CCC=C(C)C (configuration not stated)

>  <cell viability (%)>
105

$$$$
>  <compound>
CS(=O)(=O)c1ccc(C(=O)Nc2ccc(Cl)c(-c3ccccn3)c2)c(Cl)c1

>  <cell viability (%)>
104

$$$$
>  <compound>
CN1CCC(NC(=O)c2cc(-c3c(O)cc(O)cc3Oc3ccc([N+](=O)[O-])cc3)on2)CC1

>  <cell viability (%)>
23.9

$$$$
